Just for reference, patent US20240180923A1 is where these values come from.

# test-details: MiaPaca-2 xenograft PK/PD model: sotorasib plasma PK with DCC-3116
# Type: in vivo, mouse
# recorded-conditions: female, Envigo Nude, mouse, plasma, po, 10 mg/kg, 10 mg/kg sotorasib + 25 mg/kg DCC-3116
property-name: AUC(0-t)
The reply should consist of the numeric value with the unit placed after it.

Prompt: Which value of AUC(0-t) has been reported for C=CC(=O)N1CCN(c2nc(=O)n(-c3c(C)ccnc3C(C)C)c3nc(-c4c(O)cccc4F)c(F)cc23)[C@@H](C)C1 in the records?
Response: 727 ng·h/mL

* * *

# test-details: Nude mouse PK study with adagrasib and DCC-3116 treatment
# Type: in vivo
# recorded-conditions: female, athymic nude, mouse, plasma, po, 25 mg/kg, DCC-3116 AUC0-2 h (average), DCC-3116 single agent at 25 mg/kg PO BID, 5 days
property-name: AUC(0-t) (µg·h/mL)
Report the value in µg·h/mL with no unit label.

Prompt: Which value of AUC(0-t) has been reported for CCc1cc(N2CCN(C)CC2)ccc1Nc1ncc(C(F)(F)F)c(NCCCN2CCOCCC2=O)n1 [DCC-3116] in the records?
Response: 0.876

* * *

# test-details: Nude mouse PK study with adagrasib and DCC-3116 treatment
# Assay type: in vivo
# recorded-conditions: female, athymic nude, mouse, plasma, po, 25 mg/kg, adagrasib in combination with 25 mg/kg DCC-3116 (first statement); read-out: adagrasib AUC0-2 h (average)
property-name: AUC(0-t) (ng·h/mL)
Report the value in ng·h/mL with no unit label.

Prompt: Which value of AUC(0-t) has been reported for C=C(F)C(=O)N1CCN(c2nc(OC[C@@H]3CCCN3C)nc3c2CCN(c2cccc4cccc(Cl)c24)C3)C[C@@H]1CC#N [adagrasib, reference compound] in the records?
Response: 2970

* * *

# test-details: Nude mouse PK study with adagrasib and DCC-3116 treatment
# Type: in vivo
# recorded-conditions: female, athymic nude, mouse, plasma, po, 100 mg/kg, adagrasib 100 mg/kg PO QD single agent, 5 days; read-out: adagrasib AUC0-2 h (average)
property-name: AUC(0-t) (ng·h/mL)
Report the value in ng·h/mL with no unit label.

Prompt: Which value of AUC(0-t) has been reported for C=C(F)C(=O)N1CCN(c2nc(OC[C@@H]3CCCN3C)nc3c2CCN(c2cccc4cccc(Cl)c24)C3)C[C@@H]1CC#N [adagrasib, reference compound] in the records?
Response: 4230

* * *

# test-details: Phase 1/2 first-in-human study, DCC-3116 monotherapy dose escalation: plasma pharmacokinetics
# Type: in vivo
# recorded-conditions: human, plasma, oral; Cohort A4, 300 mg BID monotherapy, Cycle 1 Day 15
property-name: Cmax (ng/mL)
Report the value in ng/mL with no unit label.

Prompt: Which value of Cmax has been reported for CCc1cc(N2CCN(C)CC2)ccc1Nc1ncc(C(F)(F)F)c(NCCCN2CCOCCC2=O)n1 [DCC-3116] in the records?
Response: 2040

* * *

# test-details: MiaPaca-2 xenograft PK/PD model: sotorasib plasma PK with DCC-3116
# Format: in vivo, mouse
# recorded-conditions: female, Envigo Nude, mouse, plasma, po, 10 mg/kg, 10 mg/kg sotorasib + 10 mg/kg DCC-3116
property-name: AUC(0-t)
The reply should consist of the numeric value with the unit placed after it.

Prompt: Which value of AUC(0-t) has been reported for C=CC(=O)N1CCN(c2nc(=O)n(-c3c(C)ccnc3C(C)C)c3nc(-c4c(O)cccc4F)c(F)cc23)[C@@H](C)C1 in the records?
Response: 344 ng·h/mL
